# Experimental system: human S1P3 receptor (Homo sapiens, UniProt Q99500)
# Construct: expressed in transfected cells
# Sequence (Q99500 whole entry): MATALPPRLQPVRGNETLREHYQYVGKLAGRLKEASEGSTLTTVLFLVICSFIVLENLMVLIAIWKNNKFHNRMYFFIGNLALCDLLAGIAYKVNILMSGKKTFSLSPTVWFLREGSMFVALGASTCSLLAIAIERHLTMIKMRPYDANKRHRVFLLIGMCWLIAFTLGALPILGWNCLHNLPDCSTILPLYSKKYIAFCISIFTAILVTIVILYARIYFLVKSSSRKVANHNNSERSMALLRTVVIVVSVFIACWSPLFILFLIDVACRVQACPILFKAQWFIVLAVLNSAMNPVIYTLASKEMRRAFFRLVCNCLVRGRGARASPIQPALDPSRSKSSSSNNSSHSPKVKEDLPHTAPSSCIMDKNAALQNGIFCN
# Assay summary: FLIPR calcium (Fluo-4) assay for activation or block of activation of human S1P3 receptor in T24 cells
# Assay type: cell-based
# Assay conditions: T24 cells stably expressing the human S1P3 receptor; tested over 0.61 nM to 10,000 nM; read-out: S1P3 IC50
# key: entry, value: pIC50
Notebook: values listed as pIC50 are -log10 of the concentration (mol/L).

Some solved entries appear below for comparison.
Form field: reported pIC50 of CCNC(=O)Nc1cc2c3c(c1)[C@](C)(c1ccccc1)CCN3CC[C@@]2(C)c1ccccc1 6.71

Look up pIC50: CC(C)(C)NC(=O)Nc1cc2c3c(c1)[C@](C)(c1ccccc1)CCN3CC[C@@]2(C)c1ccccc1 6.46

Would you mind telling me what pIC50 value was observed for CCCNC(=O)c1cc2c3c(c1)C(c1ccccc1)CCN3CCC2c1ccccc1 (stereo not shown) ? 6.06

Could you now consider this next molecule?
Record request: pIC50 value, item COC(=O)Nc1cc2c3c(c1)C(c1ccc(F)cc1)CCN3CCC2c1ccc(F)cc1 (stereo not shown) 8.30

Every entry's value here was drawn from patent US8431702B2.
